I'd be grateful if you could share measured pIC50 for these entries.
Biological target: Metabotropic glutamate receptor 2 (Rattus norvegicus, UniProt P31421)
Sequence (P31421 whole entry): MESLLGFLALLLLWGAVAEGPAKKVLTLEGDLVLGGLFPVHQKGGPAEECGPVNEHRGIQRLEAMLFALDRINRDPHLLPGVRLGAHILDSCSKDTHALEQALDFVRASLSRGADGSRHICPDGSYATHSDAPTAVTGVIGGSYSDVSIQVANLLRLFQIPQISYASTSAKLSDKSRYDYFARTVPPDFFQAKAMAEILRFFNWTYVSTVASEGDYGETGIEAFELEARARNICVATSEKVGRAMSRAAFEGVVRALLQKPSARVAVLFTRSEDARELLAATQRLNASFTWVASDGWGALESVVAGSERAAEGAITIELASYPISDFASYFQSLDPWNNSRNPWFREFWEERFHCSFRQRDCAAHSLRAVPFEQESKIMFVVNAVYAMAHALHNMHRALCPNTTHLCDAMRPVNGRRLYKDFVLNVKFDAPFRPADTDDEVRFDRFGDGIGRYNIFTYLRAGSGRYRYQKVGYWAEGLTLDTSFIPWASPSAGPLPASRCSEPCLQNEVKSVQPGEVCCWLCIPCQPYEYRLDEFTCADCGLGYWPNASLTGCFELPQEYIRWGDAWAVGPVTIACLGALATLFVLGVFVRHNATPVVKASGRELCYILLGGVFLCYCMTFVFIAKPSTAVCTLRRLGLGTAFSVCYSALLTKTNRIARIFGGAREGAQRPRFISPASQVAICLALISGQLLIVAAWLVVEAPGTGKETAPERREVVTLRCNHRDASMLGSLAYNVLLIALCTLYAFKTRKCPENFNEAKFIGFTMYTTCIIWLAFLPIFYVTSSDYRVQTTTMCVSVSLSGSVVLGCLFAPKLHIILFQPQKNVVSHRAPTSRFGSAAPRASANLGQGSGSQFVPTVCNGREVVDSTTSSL
Test: Antagonist activity at rat mGluR2 assessed as effect on (1S,3R)-ACPD-induced inhibition of forskolin-stimulated cAMP production
Assay type: functional
Numbers only, as −log10 of the molar value.

# map each compound to its pIC50
1. O=C1CC(c2cccc(-n3ccnn3)c2)=Nc2cc(O)c(C#Cc3ccc(F)cc3)cc2N1
2. O=C1CC(c2cccc(-n3ccnc3)c2)=Nc2ccc(C#Cc3ccccc3)cc2N1
3. O=C1CC(c2cccc(-n3ccnn3)c2)=Nc2ccc(C#Cc3ccc(F)cc3)cc2N1
4. O=C1CC(c2cccc(-n3ccnc3)c2)=Nc2ccc(C#Cc3ccc(F)cc3)cc2N1
5. COCCOc1cc2c(cc1C#Cc1ccccc1)NC(=O)CC(c1cccc(-n3ccnc3)c1)=N2

Response:
1. 7.77
2. 8.00
3. 7.92
4. 8.05
5. 7.82

Working through the 3 compounds below one at a time, give pIC50 for each.
1. O=C1CC(c2cccc(-n3ccnc3)c2)=Nc2cc(O)c(C#Cc3ccc(F)cc3)cc2N1
2. O=C1CC(c2cccc(-n3ccnc3)c2)=Nc2ccc(C#Cc3ccccc3F)cc2N1
3. N#Cc1cccc(C2=Nc3ccc(C#Cc4ccccc4)cc3NC(=O)C2)c1

Response:
7.96
7.80
7.77

Prompt: What does the record list as pIC50 for `N#CCOc1cc2c(cc1C#Cc1ccccc1)NC(=O)CC(c1cccc(-n3ccnc3)c1)=N2` ?
Response: 7.89
